Experiment: Solubility of bendamustine HCl in 0.9% saline with non-aqueous solubilizer (Example 1)
Type: physicochemical
Details: 5 °C, aqueous with cosolvent or surfactant or cyclodextrin, thermodynamic from solid, 5° C.; API Source A; 85.0% Normal Saline, […] Non-aqueous Solubilizer (90:10 PEG 400/PG); read-out: Solubility of bendamustine HCl
Protocol: Essentially, an excess of bendamustine HCl was added to solvents comprising of various volume percent of the non-aqueous solubilizer in 0.9% saline, and allowed to equilibrate with shaking for 30 minutes at room temperature, or for 24 hours at refrigerated temperature. […]
Counter-ions that a name gives are not always drawn.
Assay Metric: solubility at 24 h (µg/mL)
# unit: µg/mL | format: bare number

Q: For the compound Cn1c(CCCC(=O)O)nc2cc(N(CCCl)CCCl)ccc21 [bendamustine HCl] , what solubility at 24 h is on record?
Result: 2900
